system: bamyardgrass; assay: Test B flood test barnyardgrass; type: in vivo, Echinochloa crus-galli; details: Rate 500 g/ha, Pre-emergence section of Table B; 0 to 10 scale (0 no effect, 10 complete control)
Below, each entry is listed alongside its reported Barnyardgrass plant response rating.
The response must contain the number and no unit.

For the compound `CC(C)N(C(=O)n1oc(=O)n(CCc2ccccc2)c1=O)c1ccccc1` , what Barnyardgrass plant response rating is on record?
0

====

Below, each entry is listed alongside its reported Plant response rating, Giant foxtail.
Tested on: giant foxtail
Experiment: Test B pre/postemergence giant foxtail
Type: in vivo, Setaria faberii
Details: Postemergence, Rate 500 g/ha; scale 0 to 10, 0 is no effect, 10 is complete control
Method: […] At the same time, these crop and weed species were also treated with postemergence applications of test chemicals formulated in the same manner. […] Treated plants and controls were maintained in a greenhouse for twelve to sixteen days, after which all species were compared to controls and visually evaluated. […]

For the compound CC(C)N(C(=O)n1oc(=O)n(CC2=NCCCO2)c1=O)c1ccccc1 [Compound 494] , what Plant response rating, Giant foxtail is on record?
0

For the compound CC(C)N(C(=O)n1oc(=O)n(CC2CCC2)c1=O)c1ccc(Cl)cc1 [Compound 550] , what Plant response rating, Giant foxtail is on record?
9

For the compound CC(C)N(C(=O)n1oc(=O)n(CCCF)c1=O)c1ccc(F)cc1F [Compound 500] , what Plant response rating, Giant foxtail is on record?
9

For the compound CCC(=O)Cn1c(=O)on(C(=O)N(c2ccc(F)cc2F)C(C)C)c1=O [Compound 524] , what Plant response rating, Giant foxtail is on record?
9

For the compound CC(C)N(C(=O)n1oc(=O)n(CCC2OCCCO2)c1=O)c1ccc(Cl)cc1 [Compound 532] , what Plant response rating, Giant foxtail is on record?
8

For the compound CCN(CC)C(=O)Cn1c(=O)on(C(=O)N(c2ccc(F)cc2F)C(C)C)c1=O [Compound 512] , what Plant response rating, Giant foxtail is on record?
8

====

test system: bedstraw; assay: Test B pre/postemergence bedstraw; type: in vivo, Galium aparine; conditions: Preemergence, Rate 500 g/ha; scale 0 to 10, 0 is no effect, 10 is complete control
metric name: Bedstraw plant response rating
The response must contain the number and no unit.

Here are 3 compounds together with their reported answers.
CC(C)N(C(=O)n1oc(=O)n(COC(=O)C(C)(C)C)c1=O)c1ccc(F)cc1 [Compound 462] : 0
CC(C)N(C(=O)n1oc(=O)n(CC#N)c1=O)c1ccc(F)cc1 [Compound 395] : 0
CC(C)N(C(=O)n1oc(=O)n(CCCF)c1=O)c1ccc(F)cc1F [Compound 500] : 10

For the compound COCn1c(=O)on(C(=O)N(c2ccc(F)cc2F)C(C)C)c1=O [Compound 503] , what Bedstraw plant response rating is on record?
10

====

test system: rape; experiment: Test B pre/postemergence rape; type: in vivo, Brassica napus; settings: Preemergence, Rate 125 g/ha; scale of 0 to 10 where 0 is no effect and 10 is complete control
metric name: Plant response rating, Rape
The response must contain the number and no unit.

Here are 2 compounds together with their reported answers.
COC(=O)C(CCO)n1c(=O)on(C(=O)N(c2ccc(Cl)cc2)C(C)C)c1=O (stereo not shown) : 0
CC(C)N(C(=O)n1oc(=O)n(C(CF)CCl)c1=O)c1ccc(F)cc1 (racemic) : 8

For the compound `CC(C)N(C(=O)n1oc(=O)n(C[C@H](C)Cl)c1=O)c1ccc(F)cc1F` , what Plant response rating, Rape is on record?
3

For the compound COC(OC)C(C)n1c(=O)on(C(=O)N(c2ccc(F)cc2)C(C)C)c1=O (stereo not shown) , what Plant response rating, Rape is on record?
2

====

Below, each entry is listed alongside its reported Barnyardgrass plant response rating.
system: bamyardgrass; assay: Test B flood test barnyardgrass; format: in vivo, Echinochloa crus-galli; conditions: Rate 250 g/ha; Pre-emergence (flood test species); scale 0 to 10, 0 is no effect, 10 is complete control
The response must contain the number and no unit.

Here are 3 compounds together with their reported answers.
CC(C)N(C(=O)n1oc(=O)n(CCCNC(=O)CCl)c1=O)c1ccccc1 [Compound 493] : 0
CC(C)N(C(=O)n1oc(=O)n(CC2CCC2)c1=O)c1ccc(Cl)cc1 [Compound 550] : 0
CC(C)N(C(=O)n1oc(=O)n(CC2=NCCCO2)c1=O)c1ccccc1 [Compound 494] : 0

For the compound CCCCCCn1c(=O)on(C(=O)N(c2ccc(F)cc2F)C(C)C)c1=O [Compound 637] , what Barnyardgrass plant response rating is on record?
0

For the compound CC(C)N(C(=O)n1oc(=O)n(CCc2ccccc2)c1=O)c1ccccc1 [Compound 567] , what Barnyardgrass plant response rating is on record?
0

For the compound CC(C)N(C(=O)n1oc(=O)n(CC(=O)C2CCC2)c1=O)c1ccc(F)cc1F [Compound 642] , what Barnyardgrass plant response rating is on record?
0

====

tested on: surinam grass; assay: Test B pre/postemergence surinam grass; assay type: in vivo, Brachiaria decumbens; details: Preemergence, Rate 62 g/ha; scale of 0 to 10 where 0 is no effect and 10 is complete control
metric name: B. signalgrass plant response rating
The response must contain the number and no unit.

CC1Cc2cccc(-n3c(=O)on(C(=O)N(c4ccc(F)cc4)C(C)C)c3=O)c2O1 (centres unmarked) : 0
CC(C)N(C(=O)n1oc(=O)n(CCCCl)c1=O)c1ccc(F)cc1 : 5
CC(C)N(C(=O)n1oc(=O)n(Cc2nnc(Cl)s2)c1=O)c1ccccc1 : 0
Cc1ccccc1-n1c(=O)on(C(=O)N(c2ccc(Oc3ccccc3)cc2)C(C)C)c1=O : 0
CC(C)N(C(=O)n1oc(=O)n(C2CC3CCC2C3)c1=O)c1ccccc1 (centres unmarked) : 0
Cc1ccccc1-n1c(=O)on(C(=O)N(c2ccc(F)cc2Cl)C(C)C)c1=O : 0

# value lookup — system surinam grass, readout B. signalgrass plant response rating, item `Cc1ccccc1-n1c(=O)on(C(=O)N(c2ccc(C(C)C)cc2)C(C)C)c1=O`
0

# value lookup — system surinam grass, readout B. signalgrass plant response rating, item `CCCCCCn1c(=O)on(C(=O)N(c2ccc(F)cc2F)C(C)C)c1=O`
0

# value lookup — system surinam grass, readout B. signalgrass plant response rating, item `C#CCn1c(=O)on(C(=O)N(c2ccc(F)cc2F)C(C)C)c1=O`
8

# value lookup — system surinam grass, readout B. signalgrass plant response rating, item `CC(C)N(C(=O)n1oc(=O)n(CCCCF)c1=O)c1ccc(F)cc1`
7

# value lookup — system surinam grass, readout B. signalgrass plant response rating, item CC(C)N(C(=O)n1oc(=O)n(C2CC3CCC2C3)c1=O)c1ccc(F)cc1 (centres unmarked)
0

====

Below, each entry is listed alongside its reported Plant response rating, Cocklebur.
System: cocklebur
Assay: Test B pre/postemergence cocklebur
Format: in vivo, Xanthium strumarium
Conditions: Rate 250 g/ha, Postemergence; scale of 0 to 10 where 0 is no effect and 10 is complete control
Description: […] At the same time, these crop and weed species were also treated with postemergence applications of test chemicals formulated in the same manner. […] Treated plants and controls were maintained in a greenhouse for twelve to sixteen days, after which all species were compared to controls and visually evaluated. […]
The response must contain the number and no unit.

CC(C)N(C(=O)n1oc(=O)n(C2CCCC2)c1=O)c1ccc(F)cc1 : 1

For the molecule `Cc1cccc(C(C)(C)C)c1-n1c(=O)on(C(=O)N(c2ccccc2)C(C)C)c1=O` , what Plant response rating, Cocklebur is on record?
0

For the molecule `CC(C)N(C(=O)n1oc(=O)n(C[Si](C)(C)C)c1=O)c1ccc(Cl)cc1` , what Plant response rating, Cocklebur is on record?
0

For the molecule `CC(C)N(C(=O)n1oc(=O)n(CCCCF)c1=O)c1ccc(F)cc1` , what Plant response rating, Cocklebur is on record?
2

For the molecule CC(C)N(C(=O)n1oc(=O)n(C2CC3CCC2C3)c1=O)c1ccccc1 (stereo not drawn) , what Plant response rating, Cocklebur is on record?
0

For the molecule `CCc1cccc(CC)c1-n1c(=O)on(C(=O)N(c2ccc(F)cc2)C(C)C)c1=O` , what Plant response rating, Cocklebur is on record?
0

====

Below, each entry is listed alongside its reported Plant response rating, Crabgrass.
system: crabgrass; assay: Test B pre/postemergence crabgrass; assay type: in vivo, Digitaria sanguinalis; details: Preemergence, Rate 250 g/ha; scale of 0 to 10 where 0 is no effect and 10 is complete control
The response must contain the number and no unit.

Here are 3 compounds together with their reported answers.
Cc1nn(C)c(C)c1-n1c(=O)on(C(=O)N(c2ccc(F)cc2F)C(C)C)c1=O : 8
Cc1ccccc1Cn1c(=O)on(C(=O)N(C)c2ccccc2)c1=O : 0
COc1cccc(C)c1-n1c(=O)on(C(=O)N(c2ccc(F)cc2)C(C)C)c1=O : 6

Please examine the following record next.
# value lookup — system crabgrass, readout Plant response rating, Crabgrass, item `COc1ccc(-n2c(=O)on(C(=O)N(c3ccc(F)cc3)C(C)C)c2=O)c(OC)c1`
7
